biological target: Bile acid receptor (Homo sapiens); assay: Agonist activity at human FXR transfected in african green monkey CV1 cells by luciferase reporter gene transient transfection assay; format: functional, cell-based, CV-1
Sequence (Q96RI1 whole entry): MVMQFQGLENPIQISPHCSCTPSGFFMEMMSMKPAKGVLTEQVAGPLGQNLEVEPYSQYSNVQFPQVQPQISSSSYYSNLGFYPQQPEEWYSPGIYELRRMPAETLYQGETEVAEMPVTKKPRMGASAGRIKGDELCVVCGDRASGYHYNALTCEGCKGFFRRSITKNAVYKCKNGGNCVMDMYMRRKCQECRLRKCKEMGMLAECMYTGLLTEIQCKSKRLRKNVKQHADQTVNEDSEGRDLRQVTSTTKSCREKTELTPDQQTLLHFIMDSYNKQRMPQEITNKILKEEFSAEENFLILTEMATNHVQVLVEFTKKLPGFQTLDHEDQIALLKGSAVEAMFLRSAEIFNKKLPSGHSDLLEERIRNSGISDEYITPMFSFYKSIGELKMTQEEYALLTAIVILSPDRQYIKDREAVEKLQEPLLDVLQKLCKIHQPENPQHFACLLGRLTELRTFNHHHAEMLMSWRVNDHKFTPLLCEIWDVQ
measurement.kind: EC50 (nM)
Reply numerically in nM, unit not repeated.

# value of EC50, Bile acid receptor (Homo sapiens), item CC(C)c1onc(COc2ccc(Cl)cc2)c1COc1ccc(/C=C/c2cccc(C(=O)O)c2)c(Cl)c1 = 1300

The reported EC50 value, Bile acid receptor (Homo sapiens), for CC(C)c1onc(COc2c(Cl)cccc2Cl)c1COc1ccc(/C=C/c2cccc(C(=O)O)c2)c(Cl)c1 reads 89

Entry CC(C)c1onc(CCc2c(Cl)cccc2Cl)c1COc1ccc(/C=C/c2cccc(C(=O)O)c2)c(Cl)c1 ; assay system Bile acid receptor (Homo sapiens); EC50 recorded at 48

Let me check: CC(C)c1onc(Cc2ccccc2)c1COc1ccc(/C=C/c2cccc(C(=O)O)c2)c(Cl)c1 , system Bile acid receptor (Homo sapiens), measured EC50 is 230
